# Tested on: human LS180 intestinal cells
# test-details: Inhibition of phenylephrine (PE) metabolism (PE disappearance) in LS180 cells
# Format: cell-based
# experimental-setup: Homo sapiens; PE 50 μM ± inhibitor 100 μM; LS180 cells; overnight; n=3; control=503±127 pmol/hr; read-out: extent of disappearance of PE (mean±SD, as % of control)
Below, each of the compounds is paired with its reported activity at 100 µM value.

Requested field: activity at 100 µM. Item: Oc1ccc(C=Cc2cc(O)cc(O)c2)cc1
14%

Returns the measured activity at 100 µM for the input compound. Input: COc1ccccc1O
51%

GET /values?readout=activity at 100 µM&item= CC=Cc1ccc(O)c(OC)c1
74%

Could you share which activity at 100 µM value was measured for COc1cc(CCC(C)=O)ccc1O ?
52%

Name the recorded activity at 100 µM for COc1cc(/C=C/C(=O)CC(=O)/C=C/c2ccc(O)c(OC)c2)ccc1O .
24%

Now let's try a different one.
Request the reported activity at 100 µM associated with COc1cc(/C=C/c2ccc(O)cc2)cc(OC)c1
71%
